# Tested system: SFRP-1 (Homo sapiens)
# Sequence (Q8N474 32-314): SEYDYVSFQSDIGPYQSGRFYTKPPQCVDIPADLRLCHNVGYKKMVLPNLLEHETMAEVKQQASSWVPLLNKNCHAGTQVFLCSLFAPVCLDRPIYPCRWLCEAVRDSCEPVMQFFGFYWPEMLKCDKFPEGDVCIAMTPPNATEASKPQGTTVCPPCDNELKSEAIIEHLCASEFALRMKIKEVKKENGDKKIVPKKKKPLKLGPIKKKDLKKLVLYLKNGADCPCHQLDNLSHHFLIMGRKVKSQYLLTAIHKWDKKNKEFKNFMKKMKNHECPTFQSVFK
# Experiment notes: Cell-based assay for in vitro measurement of SFRP-1/SARP2 antagonist activity (U2OS cells co-transfected with 16x TCF-tk-Luciferase reporter, Wnt and hSFRP-1)
Property name: EC50 (nM)

Write down the reported EC50 of CC(C)c1ccc(S(=O)(=O)c2ccccc2)cc1S(=O)(=O)NCC(O)c1ccccc1 (stereo not shown) , test system: SFRP-1 (Homo sapiens). 1760

Write down the reported EC50 of COc1ccc(C(=O)N(C)CCNS(=O)(=O)c2cc(S(=O)(=O)c3ccccc3)ccc2C(F)(F)F)cc1 , test system: SFRP-1 (Homo sapiens). 1840

I. CS(=O)(=O)N1CCC[C@H]1C(=O)N1CCC(NS(=O)(=O)c2cc(S(=O)(=O)c3ccccc3)ccc2C(F)(F)F)CC1
II. O=S(=O)(NCc1ccncc1)c1cc(S(=O)(=O)c2ccccc2)ccc1C(F)(F)F
Between the two listed entries I and II , which has its EC50 at the higher number? Response format: the label of the selected entry. II
(II: 1000 nM, I: 114 nM)

* * *

Catalogue of melting point values

Fill in: melting point of CC(C)c1cc(C(C)C)c(S(=O)(=O)c2ccccc2)cc1S(=O)(=O)NCCc1ccccc1 [Example 609] is ___ 156 to 158 °C

Further cases:
Fill in: melting point of CC(C)c1ccc(S(=O)(=O)c2ccccc2)cc1S(=O)(=O)NC1CCN(C(=O)c2ccc(C(C)(C)C)cc2)CC1 [Example 812] is ___ 150 to 152 °C

* * *

# Tested system: SFRP-1 (Homo sapiens)
# Experiment notes: Cell-based assay for in vitro measurement of SFRP-1/SARP2 antagonist activity (U2OS cells co-transfected with 16x TCF-tk-Luciferase reporter, Wnt and hSFRP-1);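 note: U2OS cells co-transfected with a TCF-tk luciferase reporter, a Wnt vector, hSFRP-1 or empty vector and CMV-βgal, luciferase luminescence read in cell lysates alongside βgal activity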
# Assay context: U2OS, read-out: Fold Induction with SFRP-1, Conc 30 μM; with SFRP-1; fold induction over SFRP-1 control, single dose
Property name: fold induction at 30 µM

# annotated cases, reported fold induction at 30 µM shown
Fill in: fold induction at 30 µM of CN1CCN(CCCNS(=O)(=O)c2cccc(S(=O)(=O)c3ccccc3)c2)CC1 is ___ 1.1

Fill in: fold induction at 30 µM of Cc1ccc(S(=O)(=O)c2ccccc2)cc1S(=O)(=O)NCCc1cccc(F)c1 is ___ 1.4

Fill in: fold induction at 30 µM of COc1ccc(CCNS(=O)(=O)c2cc(S(=O)(=O)c3ccc(Cl)cc3)ccc2C)cc1OC is ___ 1

a. COCCNS(=O)(=O)c1cccc(S(=O)(=O)c2ccccc2)c1
b. Cc1ccc(S(=O)(=O)c2ccccc2)cc1S(=O)(=O)NCCc1ccc(S(N)(=O)=O)cc1
Between the two listed entries a and b , which has its fold induction at 30 µM at the higher number? Response format: the label of the selected entry. b
(b: 1.7, a: 1.1)

I. Cc1ccc(S(=O)(=O)c2ccc(F)cc2)cc1S(=O)(=O)NCCc1ccccc1
II. O=S(=O)(NCCCN1CCOCC1)c1cccc(S(=O)(=O)c2ccccc2)c1
Between the two listed entries I and II , which has its fold induction at 30 µM at the higher number? Response format: the label of the selected entry. II
(II: 1.3, I: 0.9)
